Experiment: RP, Thermo Scientific Syncronis C18, 100 × 2.1 mm, 1.7 µm, 0.3 mL/min, estimated dead time 0.73 min; A: water + 0.1% acetic acid; B: acetonitrile + 0.1% acetic acid; gradient (min/%B) 0/5 1/5 16/95
Settings: stereoisomer not certain
Give true (1) when the value for LC retention time is at least 10 min. Give false (0) when it is less.

Compound: O=c1cc(-c2ccccc2)oc2cc(O)cc(O)c12
Class assignment: true (1)
--
Compound: O=C1CC(c2ccc(O)cc2)Oc2cc(O)cc(O)c21 (stereo not drawn)
Class assignment: false (0)
--
Compound: O=c1ccc2cc(OC3OC(CO)C(O)C(O)C3O)c(O)cc2o1 (stereo not drawn)
Class assignment: false (0)
--
Compound: COc1cc(O)c2c(=O)cc(-c3ccc(O)cc3)oc2c1
Class assignment: true (1)
--
Compound: COc1cc(C=CC=O)ccc1O
Class assignment: false (0)
--
Compound: O=c1c(-c2ccc(O)cc2)coc2cc(O)cc(O)c12
Class assignment: false (0)
--
Compound: O=c1cc(-c2ccc(O)c(O)c2)oc2cc(O)cc(O)c12
Class assignment: false (0)
